Please respond with reported pIC50 for every item in the list.
System Name: His-BIR2-3 (125-356, C202A/C213G, XIAP) (Homo sapiens, UniProt P98170, C202A/C213G)
Construct: additions of His-BIR2-3 (125-356, C202A/C213G, XIAP), fluorescein labeled dimeric SMAC peptide
Sequence (P98170 125-356 C202A/C213G): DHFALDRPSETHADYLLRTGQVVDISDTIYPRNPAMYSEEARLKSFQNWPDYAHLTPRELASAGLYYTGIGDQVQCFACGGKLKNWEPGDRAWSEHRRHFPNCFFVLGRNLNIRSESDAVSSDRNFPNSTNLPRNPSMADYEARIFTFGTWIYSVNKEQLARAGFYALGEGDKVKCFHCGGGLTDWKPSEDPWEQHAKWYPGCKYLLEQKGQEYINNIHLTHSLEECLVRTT
Assay Name: XIAP-BIR2-3 Dimeric SMAC Peptide Homogeneous Time Resolved Fluorescence (HTRF) Assay
Settings: fluorescein labeled dimeric SMAC peptide
Give bare numbers, as −log10 of the molar value.

>  <Molecule>
CN[C@@H](C)C(=O)N[C@H](C(=O)N1C[C@@H]2C[C@H]1C(=O)N[C@@H](Cc1ccc3ccccc3c1)C(=O)N[C@H](C(=O)O)Cc1ccc(cc1)OC/C=C/CO[C@H]1C[C@@H](C(=O)N[C@@H](c3ccccc3)C(=O)N[C@H](C(=O)O)Cc3ccc(cc3)C(=O)N2)N(C(=O)[C@@H](NC(=O)[C@H](C)NC)C(C)(C)C)C1)C(C)(C)C [Example 51]

>  <Reading>
8.32

$$$$

Could you tell me pIC50 for each of these molecules? They are listed below.
1. CN[C@@H](C)C(=O)N[C@H](C(=O)N1C[C@@H]2C[C@H]1C(=O)N[C@@H](Cc1ccc3ccccc3c1)C(=O)N[C@H](C(=O)O)Cc1ccc(cc1)CCCC[C@H]1C[C@@H](C(=O)N[C@@H](Cc3ccc4ccccc4c3)C(=O)N[C@H](C(=O)NS(=O)(=O)C3CC3)Cc3ccc(cc3)OCc3cn2nn3)N(C(=O)[C@@H](NC(=O)[C@H](C)NC)C(C)(C)C)C1)C(C)(C)C [Example 119]
2. CN[C@@H](C)C(=O)N[C@H](C(=O)N[C@H]1C/C=C/CC[C@@H](C(=O)O)NC(=O)[C@H](Cc2ccccc2)NC(=O)[C@@H]2CN(CCNC(=O)CC[C@@H](C(=O)O)NC(=O)[C@H](Cc3ccccc3)NC1=O)CCN2C(=O)[C@@H](NC(=O)[C@H](C)NC)C(C)C)C(C)C [Example 81]
3. CN[C@@H](C)C(=O)N[C@H](C(=O)N1C[C@@H]2C[C@H]1C(=O)N[C@@H](Cc1ccc3ccccc3c1)C(=O)N[C@H](C(=O)O)Cc1ccc(cc1)OC/C=C/CO[C@H]1C[C@@H](C(=O)N[C@@H](Cc3cccc(-c4ccc(CO)cc4)c3)C(=O)N[C@H](C(=O)NS(=O)(=O)C3CC3)Cc3ccc(cc3)OCc3cn2nn3)N(C(=O)[C@@H](NC(=O)[C@H](C)NC)C(C)(C)C)C1)C(C)(C)C [Example 117]
4. CN[C@@H](C)C(=O)NC(C(=O)N1C[C@H]2CCCCOc3ccc(cc3)C[C@@H](c3n[nH]c(=O)o3)NC(=O)C(Cc3ccc4ccccc4c3)NC(=O)[C@@H]3C[C@@H](CN3C(=O)[C@@H](NC(=O)[C@H](C)NC)C(C)(C)C)n3cc(nn3)COc3ccc(cc3)C[C@@H](C(=O)O)NC(=O)[C@H](Cc3ccc4ccccc4c3)NC(=O)[C@@H]1C2)C(C)(C)C (some centres unmarked) [Example 92]
5. CNC(C)C(=O)NC(C(=O)N1CC2CC1C(=O)NC(Cc1ccc3ccccc3c1)C(=O)NC(C(=O)O)Cc1ccc(cc1)OCC=CCOC1CC(C(=O)NC(Cc3ccc4ccccc4c3)C(=O)NC(C(=O)O)CCC(=O)N2)N(C(=O)C(NC(=O)C(C)NC)C(C)(C)C)C1)C(C)(C)C (centres unmarked) [Example 33]
6. CN[C@@H](C)C(=O)N[C@H](C(=O)N1CC[C@H]2OC/C=C/CC[C@@H](C(=O)O)NC(=O)[C@H](Cc3ccc4ccccc4c3)NC(=O)[C@@H]3[C@@H](CCN3C(=O)[C@@H](NC(=O)[C@H](C)NC)C(C)(C)C)OCc3cn(nn3)[C@H](C(=O)O)CCNC(=O)[C@H](Cc3ccc4ccccc4c3)NC(=O)[C@H]21)C(C)(C)C [Example 15]
7. CN[C@@H](C)C(=O)N[C@H](C(=O)N1C[C@@H]2C[C@H]1C(=O)NC(Cc1ccc3ccccc3c1)C(=O)N[C@H](C(=O)NS(=O)(=O)CCCO)Cc1ccc(cc1)OCCCC[C@H]1C[C@@H](C(=O)N[C@@H](Cc3ccc4ccccc4c3)C(=O)N[C@H](C(=O)O)Cc3ccc(cc3)OCc3cn2nn3)N(C(=O)[C@@H](NC(=O)[C@H](C)NC)C(C)(C)C)C1)C(C)(C)C (some centres unmarked) [Example 101]

Completion:
1. 8.47
2. 8.96
3. 7.95
4. 9.05
5. 8.02
6. 8.39
7. 9.00

Could you tell me pIC50 for each of these molecules? They are listed below.
1. CN[C@@H](C)C(=O)NC(C(=O)N1C[C@@H]2C[C@H]1C(=O)N[C@@H](Cc1ccc3ccccc3c1)C(=O)N[C@H](C(=O)O)Cc1ccc(cc1)OC/C=C/C(=O)N1CCN(C(=O)[C@@H](NC(=O)[C@H](C)NC)C(C)(C)C)[C@@H](C1)C(=O)N[C@@H](Cc1ccc3ccccc3c1)C(=O)N[C@H](C(=O)O)CCC(=O)N2)C(C)(C)C (some centres unmarked) [Example 79]
2. CN[C@@H](C)C(=O)N[C@H](C(=O)N1C[C@@H]2C[C@H]1C(=O)N[C@@H](Cc1ccc3ccccc3c1)C(=O)N[C@H](C(=O)O)Cc1ccc(cc1)OC/C=C/CO[C@H]1C[C@@H](C(=O)N[C@@H](Cc3cccc(-c4cccnc4)c3)C(=O)N[C@H](C(=O)NS(=O)(=O)C3CC3)Cc3ccc(cc3)OCc3cn2nn3)N(C(=O)[C@@H](NC(=O)[C@H](C)NC)C(C)(C)C)C1)C(C)(C)C [Example 116]
3. CN[C@@H](C)C(=O)N[C@@H](Cc1ccccc1)C(=O)N1C[C@@H]2C[C@H]1C(=O)N[C@@H](Cc1ccc3ccccc3c1)C(=O)N[C@H](C(=O)O)CCC(=O)N[C@H]1C[C@@H](C(=O)N[C@@H](Cc3ccc4ccccc4c3)C(=O)N[C@H](C(=O)O)Cc3ccc(cc3)OC/C=C/CO2)N(C(=O)[C@@H](NC(=O)[C@H](C)NC)C(C)(C)C)C1 [Example 60]

Completion:
1. 8.25
2. 7.70
3. 8.04

###

Please respond with reported log10 IC50 for every item in the list.
System Name: His-BIR3 (241-356, XIAP) (Homo sapiens, UniProt P98170)
Construct: additions of His-BIR3 (241-356, XIAP), fluorescein labeled SMAC peptide
Sequence (P98170 241-356): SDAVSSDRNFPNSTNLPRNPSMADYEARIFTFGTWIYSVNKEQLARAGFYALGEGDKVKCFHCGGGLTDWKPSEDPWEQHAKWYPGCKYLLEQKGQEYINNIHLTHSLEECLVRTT
Assay Name: XIAP-BIR3/SMAC Homogeneous Time Resolved Fluorescence (HTRF) Assay
Settings: fluorescein labeled SMAC peptide
Scale type: logarithmic (base 10). Underlying IC50 unit: nM.

Consider the worked cases shown below.
>  <Compound>
CNC(C)C(=O)NC(C(=O)N1CC2CC1C(=O)NC(Cc1ccc3ccccc3c1)C(=O)NC(C(=O)O)Cc1ccc(cc1)OCc1cn(nn1)C1CC(C(=O)NC(Cc3ccc4ccccc4c3)C(=O)NC(C(=O)O)Cc3ccc(cc3)OCC=CCO2)N(C(=O)C(NC(=O)C(C)NC)C(C)(C)C)C1)C(C)(C)C (centres unmarked)

>  <log10 IC50>
0.61

$$$$
>  <Compound>
CN[C@@H](C)C(=O)N[C@@H](CC(N)=O)C(=O)N1C[C@@H]2C[C@H]1C(=O)N[C@@H](Cc1ccc3ccccc3c1)C(=O)N[C@H](C(=O)O)Cc1ccc(cc1)C(=O)N[C@H]1C[C@@H](C(=O)N[C@@H](Cc3ccc4ccccc4c3)C(=O)N[C@H](C(=O)O)Cc3ccc(cc3)OC/C=C/CO2)N(C(=O)[C@@H](NC(=O)[C@H](C)NC)C(C)(C)C)C1

>  <log10 IC50>
1.69

$$$$
>  <Compound>
CN[C@@H](C)C(=O)N[C@H](C(=O)N1C[C@@H]2C[C@H]1C(=O)N[C@@H](Cc1ccc3ccccc3c1)C(=O)N[C@H](C(=O)O)Cc1ccc(cc1)C(=O)N[C@H]1C[C@@H](C(=O)N[C@@H](Cc3ccc4ccccc4c3)C(=O)N[C@H](C(=O)O)Cc3ccc(cc3)OC/C=C/CO2)N(C(=O)[C@@H](NC(=O)[C@H](C)NC)C(C)(C)C)C1)C1CCNCC1 [Example 74]

>  <log10 IC50>
0.85

$$$$
>  <Compound>
CN[C@@H](C)C(=O)N[C@H](C(=O)N1C[C@@H]2C[C@H]1C(=O)N[C@@H](Cc1ccc3ccccc3c1)C(=O)N[C@H](C(=O)O)Cc1ccc(cc1)OC/C=C/CO[C@H]1C[C@@H](C(=O)N[C@@H](Cc3ccc4ccccc4c3)C(=O)N[C@H](C(=O)NS(=O)(=O)c3ccccn3)Cc3ccc(cc3)OCc3cn2nn3)N(C(=O)[C@@H](NC(=O)[C@H](C)NC)C(C)(C)C)C1)C(C)(C)C

>  <log10 IC50>
0.80

$$$$

Could you tell me log10 IC50 for each of these compounds? They are listed below.
1. CC[C@H](NC(=O)[C@H](C)NC)C(=O)N1C[C@@H]2C[C@H]1C(=O)N[C@@H](c1ccccc1)C(=O)N[C@H](C(=O)O)Cc1ccc(cc1)C(=O)N[C@H]1C[C@@H](C(=O)N[C@@H](Cc3ccc4ccccc4c3)C(=O)N[C@H](C(=O)O)Cc3ccc(cc3)OC/C=C/CO2)N(C(=O)[C@@H](NC(=O)[C@H](C)NC)C(C)(C)C)C1 [Example 54]
2. CN[C@@H](C)C(=O)N[C@H](C(=O)N1C[C@@H]2C[C@H]1C(=O)N[C@@H](Cc1ccc3ccccc3c1)C(=O)N[C@H](C(=O)O)Cc1ccc(cc1)OC/C=C/CO[C@H]1C[C@@H](C(=O)N[C@@H](Cc3ccc(-c4ccccc4)cc3)C(=O)N[C@H](C(=O)NS(=O)(=O)C3CC3)Cc3ccc(cc3)OCc3cn2nn3)N(C(=O)[C@@H](NC(=O)[C@H](C)NC)C(C)(C)C)C1)C(C)(C)C
3. CN[C@@H](C)C(=O)N[C@H](C(=O)N1C[C@@H]2C[C@H]1C(=O)N[C@@H](Cc1ccc3ccccc3c1)C(=O)N[C@H](C(=O)O)Cc1ccc(cc1)C(=O)N[C@H]1C[C@@H](C(=O)N[C@@H](Cc3ccc4ccccc4c3)C(=O)N[C@H](C(=O)O)Cc3ccc(cc3)OC/C=C/CO2)N(C(=O)[C@@H](NC(=O)[C@H](C)NC)C(C)(C)C)C1)C1CCNCC1 [Example 67]
4. CN[C@@H](C)C(=O)N[C@H](C(=O)N1CC[C@@H]2OC/C=C/COc3ccc(cc3)C[C@@H](C(=O)O)NC(=O)[C@H](Cc3ccc4ccccc4c3)NC(=O)[C@@H]3[C@@H](CCN3C(=O)[C@@H](NC(=O)[C@H](C)NC)C(C)(C)C)OCc3cn(nn3)CCC[C@@H](C(=O)O)NC(=O)[C@H](Cc3ccc4ccccc4c3)NC(=O)[C@H]21)C(C)(C)C
5. CN[C@@H](C)C(=O)NC(C(=O)N1C[C@H]2C/C=C/COc3ccc(cc3)C[C@@H](c3n[nH]c(=O)o3)NC(=O)C(Cc3ccc4ccccc4c3)NC(=O)[C@@H]3C[C@@H](CN3C(=O)[C@@H](NC(=O)[C@H](C)NC)C(C)(C)C)n3cc(nn3)COc3ccc(cc3)C[C@@H](C(=O)O)NC(=O)[C@H](Cc3ccc4ccccc4c3)NC(=O)[C@@H]1C2)C(C)(C)C (some centres unmarked)
6. CN[C@@H](C)C(=O)N[C@H](C(=O)N1C[C@@H]2C[C@H]1C(=O)N[C@@H](Cc1ccc3ccccc3c1)C(=O)N[C@H](C(=O)NS(=O)(=O)C1CC1)Cc1ccc(cc1)OCc1cn(nn1)[C@H]1C[C@@H](C(=O)N[C@@H](Cc3ccc4ccccc4c3)C(=O)N[C@H](C(=O)O)Cc3ccc(cc3)OC/C=C/CO2)N(C(=O)[C@@H](NC(=O)[C@H](C)NC)C(C)(C)C)C1)C1CCCCC1
7. CN[C@@H](C)C(=O)N[C@H](C(=O)N1CC[C@H]2OCc3cn(nn3)-c3ccc(cc3)C[C@@H](C(=O)O)NC(=O)[C@H](Cc3ccc4ccccc4c3)NC(=O)[C@@H]3C[C@@H](CN3C(=O)[C@@H](NC(=O)[C@H](C)NC)C(C)(C)C)OC/C=C/COc3ccc(cc3)C[C@@H](C(=O)O)NC(=O)[C@H](Cc3ccc4ccccc4c3)NC(=O)[C@H]21)C(C)(C)C

Completion:
1: 1.78; 2: 1.25; 3: 1.30; 4: -0.10; 5: 0.30; 6: 1.96; 7: 0.08
